measured-on: GABA-A receptor; anion channel
experimental-protocol: In vitro inhibition of [3H]flunitrazepam binding to rat GABA-A Benzodiazepine receptor
Format: protein-complex assay
outcome-measure: pIC50
Here pIC50 is given on a logarithmic scale as minus log10 of the concentration in mol/L.

Ask | Which pIC50 reading was recorded for the compound CC(C)(C)C(=O)Oc1ccc2c(c1)[nH]c1c3c4ccccc4nc-3c[nH]c12 ?
Reply | 6.70

###

So I've got a bunch of molecules here, and I need their IC50 values.
measured-on: GABA-A receptor; anion channel
experimental-protocol: In vitro potency measured against [3H]diazepam at the benzodiazepine receptor in rat

Ask | Which IC50 reading was recorded for the molecule c1ccc(COc2cccc3[nH]c4c5c6ccccc6nc-5c[nH]c4c23)cc1 ?
Reply | > 4 µM

Ask | Which IC50 reading was recorded for the molecule c1ccc(COc2ccc3c(c2)[nH]c2c3ncc3[nH]c4ccccc4c32)cc1 ?
Reply | > 4 µM

Ask | Which IC50 reading was recorded for the molecule Nc1ccc2[nH]c3c[nH]c4c5cc(Cl)ccc5nc-4c3c2c1 ?
Reply | > 0.35 µM

Ask | Which IC50 reading was recorded for the molecule Cc1cccc2[nH]c3c4c5ccccc5nc-4c[nH]c3c12 ?
Reply | > 5 µM

Ask | Which IC50 reading was recorded for the molecule Brc1ccc2[nH]c3c(ncc4[nH]c5ccc(Br)cc5c43)c2c1 ?
Reply | > 0.32 µM

The reported measurements were obtained from ChEMBL document CHEMBL1124900.
